- experiment_summary: Selectivity index, ratio of IC50 for PDE4B1 S133D mutant (unknown origin) to IC50 for PDE4D7 S129D mutant (unknown origin)
recorded_metric: Ratio IC50

chemical_string	value_observed
COc1ccc(Cn2ccnc2)nc1-c1cccc(OC(F)F)c1	559
COc1cccc(-c2nc(Cc3cncnc3)ccc2OC(F)F)c1	116
COc1ccc(Oc2cn[nH]c2)nc1-c1cccc(C(F)(F)F)c1	0.92
COc1ccc(Nc2cn[nH]c2)nc1-c1cccc(OC(F)F)c1	13
COc1ccc(Cc2cnn(C)c2)nc1-c1cccc(OC(F)F)c1	137
COc1cccc(-c2nc(Cc3cn[nH]c3)ccc2OC)c1	165
COc1ccc(Cn2cccn2)nc1-c1cccc(Cl)c1	8
COc1cccc(-c2nc(Cn3cnnn3)ccc2OC(F)F)c1	28

a: Fc1cccc(-c2nc(Cc3cn[nH]c3)ccc2OC(F)F)c1
b: FC(F)Oc1ccc(Cc2ccncc2)nc1-c1cccc(OCc2ccccc2)c1
c: Fc1cccc(-c2nc(Nc3cn[nH]c3)ccc2OC(F)F)c1
d: COc1cccc(-c2nc(Cc3cccnc3)ccc2OC(F)F)c1
Please list the entries, largest Ratio IC50 first. Return the labels ranked in the requested order, please.
a, d, c, b

###

- experiment_summary: Inhibition of PDE4D7 S129D mutant (unknown origin) preincubated for 5 to 10 mins followed by substrate addition and measured for 10 mins by coupled enzyme based fluorescence analysis
- Set-up: species or system Homo sapiens
recorded_metric: IC50 (µM)

chemical_string	output_unit	value_observed
COc1ccc(Nc2cn[nH]c2)nc1-c1cccc(C(F)(F)F)c1	µM	4.31
COc1ccc(Oc2cn[nH]c2)nc1-c1cccc(Cl)c1	µM	0.306
COc1ccc(Cc2cn[nH]c2)nc1-c1ccc2nonc2c1	µM	0.013
COc1ccc(Cc2ccc(CCCO)cc2)nc1-c1cccc(OC(F)F)c1	µM	0.016
COc1ccc(Cc2cnn(C)c2)nc1-c1cccc(OC(F)F)c1	µM	0.011
COc1cccc(-c2nc(C(=O)c3cn[nH]c3)ccc2OC(F)F)c1	µM	0.873
COc1ccc(Cc2cn[nH]c2)nc1-c1cccc(Cl)c1	µM	0.006
COc1ccc(Cc2ccncc2)nc1-c1cccc(OC(F)F)c1	µM	0.0018
COc1ccc(Cn2cnc(C(F)(F)F)n2)nc1-c1cccc(OC(F)F)c1	µM	0.785
O=[N+]([O-])c1cccc(-c2nc(Cn3ccnc3)ccc2OC(F)F)c1	µM	0.0003

a: COc1ccc(Nc2cn[nH]c2)nc1-c1cccc(F)c1
b: COc1ccc(Cc2ccc(CCO)cc2)nc1-c1cccc(OC(F)F)c1
For the two items a and b , which reports the higher IC50 value? Record your answer as the label of the chosen record.
a
(a: 0.529 µM, b: 0.004 µM)

A: Fc1ccc(Cc2cn[nH]c2)nc1-c1cccc(Cl)c1
B: COc1ccc(Oc2cn[nH]c2)nc1-c1cccc(OC(F)F)c1
C: COc1cccc(-c2nc(Cn3ccnc3)ccc2OC(F)F)c1
D: COc1cccc(-c2nc(Cn3cncn3)ccc2OC(F)F)c1
E: COc1cccc(-c2nc(Cc3ccncc3)ccc2OC(F)F)c1
// smallest IC50 at index 0, largest at the end API: response body holds the labels in the requested order.
C, E, D, A, B

###

- target_desc: 3',5'-cyclic-AMP phosphodiesterase 4B (Homo sapiens, UniProt Q07343, S133D)
- Sequence (Q07343 whole entry S133D): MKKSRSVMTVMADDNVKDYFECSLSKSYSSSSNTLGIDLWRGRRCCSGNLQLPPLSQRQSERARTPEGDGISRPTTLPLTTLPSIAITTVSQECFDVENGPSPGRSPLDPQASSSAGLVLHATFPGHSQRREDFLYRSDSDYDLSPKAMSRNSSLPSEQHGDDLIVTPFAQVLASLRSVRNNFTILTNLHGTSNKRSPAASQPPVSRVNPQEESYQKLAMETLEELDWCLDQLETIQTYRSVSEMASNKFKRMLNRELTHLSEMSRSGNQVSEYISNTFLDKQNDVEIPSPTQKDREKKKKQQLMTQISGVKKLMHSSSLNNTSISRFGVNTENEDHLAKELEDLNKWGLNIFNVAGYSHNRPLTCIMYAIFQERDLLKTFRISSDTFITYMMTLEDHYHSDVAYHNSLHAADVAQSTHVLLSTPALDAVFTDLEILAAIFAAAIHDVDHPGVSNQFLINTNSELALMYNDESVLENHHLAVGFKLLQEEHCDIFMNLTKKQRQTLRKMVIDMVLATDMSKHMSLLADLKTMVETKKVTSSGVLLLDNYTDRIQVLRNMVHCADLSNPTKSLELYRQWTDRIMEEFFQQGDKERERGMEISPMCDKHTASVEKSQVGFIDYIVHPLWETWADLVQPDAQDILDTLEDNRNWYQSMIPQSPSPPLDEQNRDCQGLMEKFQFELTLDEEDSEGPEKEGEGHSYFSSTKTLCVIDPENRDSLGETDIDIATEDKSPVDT
- experiment_summary: Inhibition of PDE4B1 S133D mutant (unknown origin) preincubated for 5 to 10 mins followed by substrate addition and measured for 10 mins by coupled enzyme based fluorescence analysis
recorded_metric: IC50 (nM)

Before answering, review these 3 worked examples.
chemical_string	output_unit	IC50
COc1ccc(Cc2cn[nH]c2)nc1-c1cccc(Cl)c1	nM	923
COc1ccc(Cc2cn[nH]c2)nc1-c1cccc(C(F)(F)F)c1	nM	7850
COc1ccc(Oc2cn[nH]c2)nc1-c1cccc(Cl)c1	nM	4160

1: COc1ccc(Cc2cn[nH]c2)nc1-c1cccc(OC(F)F)c1
2: Fc1cccc(-c2nc(Nc3cn[nH]c3)ccc2OC(F)F)c1
I need your help: which of the pair 1 , 2 has higher IC50? API: response body contains the label of the selected item.
2
(2: 1750 nM, 1: 1070 nM)

###

- experiment_summary: Selectivity index, ratio of IC50 for PDE4B1 S133D mutant (unknown origin) to IC50 for PDE4D7 S129D mutant (unknown origin)
recorded_metric: Ratio IC50

chemical_string	value_observed
FC(F)Oc1ccc(Cn2ccnc2)nc1-c1cccc(OCc2ccccc2)c1	0.54
COc1ccc(Cc2cn[nH]c2)nc1-c1cccc(Cl)c1	154

I: COc1cccc(-c2nc(Cc3ccncc3)ccc2OC(F)F)c1
II: Fc1cccc(-c2nc(Oc3cn[nH]c3)ccc2OC(F)F)c1
Which shows the larger Ratio IC50 value: I or II ? Write down the label of the entry you select.
I
(I: 159, II: 45)

###

- experiment_summary: Inhibition of PDE4D7 S129D mutant (unknown origin) preincubated for 5 to 10 mins followed by substrate addition and measured for 10 mins by coupled enzyme based fluorescence analysis
- Design: species or system Homo sapiens
recorded_metric: IC50 (nM)

Examples with answers:
chemical_string	IC50 / nM
COc1cccc(-c2nc(Cc3cccnc3)ccc2OC(F)F)c1	12.3
FC(F)Oc1cccc(-c2nc(Cc3ccncc3)ccc2OCc2ccccc2)c1	610

I: COc1cccc(-c2nc(CNc3cn[nH]c3)ccc2OC(F)F)c1
II: FC(F)Oc1cccc(-c2nc(Cn3ccnc3)ccc2OCc2ccccc2)c1
Lab note: check whether I or II shows the higher recorded IC50. Pick one and reply with its label.
I
(I: 530 nM, II: 174 nM)

###

- target_desc: 3',5'-cyclic-AMP phosphodiesterase 4B (Homo sapiens, UniProt Q07343, S133D)
- experiment_summary: Inhibition of PDE4B1 S133D mutant (unknown origin) preincubated for 5 to 10 mins followed by substrate addition and measured for 10 mins by coupled enzyme based fluorescence analysis
pIC50: −log10 of the molar value.
recorded_metric: pIC50

Here's what some known entries look like.
chemical_string	pIC50
COc1cccc(-c2nc(Cc3cn[nH]c3)ccc2OC)c1	5.67
COc1ccc(Oc2cn[nH]c2)nc1-c1cccc(F)c1	5.34

a: COc1cccc(-c2nc(Cc3cnn(C)c3)ccc2OC(F)F)c1
b: Fc1cccc(-c2nc(Cn3ccnc3)ccc2OC(F)F)c1
c: COc1cccc(-c2nc(Cc3cn[nH]c3)ccc2OC(F)F)c1
d: COc1ccc(Cc2cn[nH]c2)nc1-c1cccc(OC(F)(F)F)c1
e: O=[N+]([O-])c1cccc(-c2nc(Cn3ccnc3)ccc2OC(F)F)c1
// ascending sort on recorded pIC50 Lab note: final answer is the ordered label list.
d, a, c, b, e

###

- experiment_summary: Inhibition of PDE4D7 S129D mutant (unknown origin) preincubated for 5 to 10 mins followed by substrate addition and measured for 10 mins by coupled enzyme based fluorescence analysis
- Parameters: species or system Homo sapiens
recorded_metric: IC50 (nM)

Example cases with answers are listed next.
chemical_string	recorded_metric	output_unit	value_observed
COc1ccc(Cc2cn[nH]c2)nc1-c1cccc(F)c1	IC50	nM	23.8
COc1ccc(Oc2cn[nH]c2)nc1-c1cccc(C(F)(F)F)c1	IC50	nM	3540
COc1ccc(Cn2cnnn2)nc1-c1cccc(OC(F)F)c1	IC50	nM	16
O=[N+]([O-])c1cccc(-c2nc(Cc3cn[nH]c3)ccc2OC(F)F)c1	IC50	nM	0.36

A: COc1cccc(-c2nc(Cn3cnc(C(F)(F)F)n3)ccc2OC(F)F)c1
B: COc1cccc(-c2nc(Oc3cn[nH]c3)ccc2OC(F)F)c1
C: COc1cccc(-c2nc(Cn3cnnn3)ccc2OC(F)F)c1
D: Fc1cccc(-c2nc(Cn3ccnc3)ccc2OC(F)F)c1
Rank by IC50 (largest to smallest). Note for the reader: the ranking is given by listing the labels in the order requested.
A, B, C, D
(A: 743 nM, B: 281 nM, C: 23 nM, D: 3.7 nM)

###

- target_desc: 3',5'-cyclic-AMP phosphodiesterase 4B (Homo sapiens, UniProt Q07343, S133D)
- experiment_summary: Inhibition of PDE4B1 S133D mutant (unknown origin) preincubated for 5 to 10 mins followed by substrate addition and measured for 10 mins by coupled enzyme based fluorescence analysis
pIC50: −log10 of the molar value.
recorded_metric: pIC50

chemical_string	pIC50
FC(F)Oc1ccc(Cc2ccncc2)nc1-c1cccc(OCc2ccccc2)c1	6.84
FC(F)Oc1ccc(Cn2ccnc2)nc1-c1cccc(OCc2ccccc2)c1	7.34
COc1cccc(-c2nc(Cn3cccn3)ccc2OC(F)F)c1	5.97
COc1ccc(Oc2cn[nH]c2)nc1-c1cccc(C(F)(F)F)c1	5.49
COc1ccc(Cn2cnnn2)nc1-c1cccc(OC(F)F)c1	5.90

1: COc1cccc(-c2nc(Cc3ccncc3)ccc2OC(F)F)c1
2: COc1ccc(Cc2cn[nH]c2)nc1-c1cccc(F)c1
// max by pIC50 over [ 1 , 2 ] Response format: the label of the selected entry.
1

A: COc1ccc(Cn2ccnc2)nc1-c1cccc(OC(F)F)c1
B: COc1cccc(-c2nc(Cc3cncnc3)ccc2OC(F)F)c1
C: COc1ccc(Nc2cn[nH]c2)nc1-c1cccc(OC(F)F)c1
// ascending sort on recorded pIC50 The reply should contain the labels ordered as requested.
C, B, A
(C: 5.60, B: 5.93, A: 6.23)
